observedProperty: melting point

Reference set (5 entries):
Give the measured melting point of `O=c1ncn(Cc2ccc(Cl)cc2)c2cc(-c3ccc(OCc4cccnc4)cc3)sc12` . 255 to 257 °C

What do you have for `O=c1ncn(Cc2ccc(Cl)cc2)c2cc(-c3ccc(OCc4ccccn4)cc3)sc12` ? 233 to 235 °C

# repeat for `N#Cc1ccc(-c2cc3c(s2)c(=O)ncn3Cc2ccc(Cl)cc2)cc1` > 300 °C

Query `O=c1ncn(Cc2ccc(Cl)cc2)c2cc(-c3ccc(OCc4ccccc4)c(Cl)c3)sc12` next 222 to 224 °C

Please do the same for `Cc1ccc(Cn2cnc(=O)c3sc(-c4ccc(C(C)(C)C)cc4)cc32)cc1` as well. 260.5 to 261.5 °C

***
Could you share which melting point value was measured for `Cc1ccc(Cn2cnc(=O)c3sc(-c4ccc(Cl)cc4)cc32)cc1` ? 244.1 to 247.5 °C

Entry `O=c1ncn(Cc2ccc(Cl)cc2)c2cc(-c3ccc(OCc4ccncc4)cc3)sc12` please 257 to 259 °C

One more compound: `O=c1ncn(Cc2ccc(Cl)cc2)c2cc(-c3ccc(OCc4cnccn4)cc3)sc12` 236.9 to 239.6 °C

----------
target: HCV polymerase (NS5B570n-Con1) (Hepatitis C virus genotype 1b, UniProt Q9WMX2); construct: a 21 amino acid C-terminal deletion of full-length HCV polymerase; experiment: HCV NS5B RNA polymerase activity (incorporation of radiolabeled nucleotide into acid insoluble RNA)
The threshold is 200 nM. Values of IC50 beneath it are tagged T; values meeting or exceeding it are tagged F.

Please let me know if `O=c1ncn(Cc2ccc(Cl)cc2)c2cc(-c3ccc(NCc4ccccn4)cc3)sc12` shows IC50 below 200 nM. T

Ok, now `CC(C)C(=O)Nc1ccc(-c2cc3c(s2)c(=O)ncn3Cc2ccc(Cl)cc2)cc1F` F

Next molecule up: `O=C(CCCO)Nc1ccc(-c2cc3c(s2)c(=O)ncn3Cc2ccc(Cl)cc2)cc1Cl` F

Now the molecule `Cc1ccc(Cn2cnc(=O)c3sc(-c4ccc(-c5cc6nc(C)cc(N)n6n5)cc4)cc32)cc1` F

Same question for `O=c1ncn(Cc2ccc(Cl)cc2)c2cc(-c3ccc(OCc4cccnc4)cc3)sc12` please. T

And what about the molecule `Cc1ccc(Cn2cnc(=O)c3sc(-c4ccc(C(C)(C)C)cc4)cc32)cc1` ? F

Proceed to `O=C(Nc1ccc(-c2cc3c(s2)c(=O)ncn3Cc2ccc(Cl)cc2)nc1)c1ccccn1` T

Now examine the next entry.
Is 200 nM strictly greater than the molecule's reported IC50? molecule: `O=C(Nc1ccc(-c2cc3c(s2)c(=O)ncn3Cc2ccc(Cl)cc2)cn1)c1ccccn1` T

----------
observedProperty: melting point

# query: melting point of entry `Cc1ccc(Cn2cnc(=O)c3sc(-c4ccccc4)cc32)c(F)c1` 225.1 to 225.8 °C

Then what about the compound `O=c1ncn(Cc2ccc(Cl)cc2)c2cc(-c3ccc(OCc4ccccn4)c(Cl)c3)sc12` ? 272 to 274 °C

Queued: `Cc1cc(N)nc(COc2ccc(-c3cc4c(s3)c(=O)ncn4Cc3ccc(Cl)cc3)cc2)n1` 272 to 274 °C

----------
# pIC50 per entry
target: HCV polymerase (NS5B570n-Con1) (Hepatitis C virus genotype 1b, UniProt Q9WMX2); construct: a 21 amino acid C-terminal deletion of full-length HCV polymerase; made in house; host or cells: E. coli BL21(DE3) pLysS, plasmid pET17b; experiment: HCV NS5B RNA polymerase activity (incorporation of radiolabeled nucleotide into acid insoluble RNA); assay type: biochemical, HCV Con1 strain
// pIC50 is dimensionless: -log10 of concentration (M)

I'd like to know its pIC50. The molecule in question is `Cc1ccc(C(=O)Nc2ccc(-c3cc4c(s3)c(=O)ncn4Cc3ccc(Cl)cc3)cc2)o1` 8.05

And `O=C(Nc1ccc(-c2cc3c(s2)c(=O)ncn3Cc2ccc(Cl)cc2)cc1)c1ccno1` ? 6.51

// next record `Cc1cc(N)n2nc(-c3ccc(-c4cc5c(s4)c(=O)ncn5Cc4ccc(Cl)cc4)cc3Cl)cc2n1` 8.40

// query: `O=c1ncn(Cc2ccc(Cl)cc2)c2cc(-c3ccc(OCc4ccccc4)c(Cl)c3)sc12` 7.52

Check `N#Cc1ccc(-c2cc3c(s2)c(=O)ncn3Cc2ccc(Cl)cc2)cc1` too. 5.80

Others:
Item under review: `O=C(Nc1ccc(-c2cc3c(s2)c(=O)ncn3Cc2ccc(Cl)cc2)cc1F)c1ccccc1` . Reported pIC50? 7.16

And for `O=c1ncn(Cc2ccc(Cl)cc2)c2cc(-c3ccc(NCc4ccccc4)cc3)sc12` ? 6.42

Ref: patent US20110070190A1
